target: MEK1 (Homo sapiens, UniProt Q02750); construct: purchased Thermo Fisher Scientific Inc. (MEK1, CRAF); Carna Biosciences, Inc. (ERK2); assay: MEK1-inhibiting activity, fluorescent polarization method (CRAF/MEK1/ERK2 cascade, IMAP); assay type: biochemical; settings: Table 3; read-out: MEK1 IC50
Sequence (Q02750 whole entry): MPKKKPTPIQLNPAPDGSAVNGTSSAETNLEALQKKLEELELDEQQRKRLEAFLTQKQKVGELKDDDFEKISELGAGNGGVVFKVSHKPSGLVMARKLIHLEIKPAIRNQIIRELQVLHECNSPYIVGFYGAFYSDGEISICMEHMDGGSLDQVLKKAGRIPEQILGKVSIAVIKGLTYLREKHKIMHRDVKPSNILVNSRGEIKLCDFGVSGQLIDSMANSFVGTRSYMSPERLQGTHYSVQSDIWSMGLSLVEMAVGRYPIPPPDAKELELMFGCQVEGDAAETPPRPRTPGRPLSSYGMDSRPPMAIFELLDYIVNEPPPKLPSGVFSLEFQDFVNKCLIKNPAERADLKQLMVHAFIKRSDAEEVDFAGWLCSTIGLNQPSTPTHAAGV
pIC50: −log10 of the molar value.
assay_endpoint: pIC50

>>> measured_result("CC1(NS(=O)(=O)Nc2nccc(Cc3cc(C(N)=O)c(Nc4ccc(I)cc4F)c(F)c3F)c2F)CCC1 [Compound A-35]")
7.18
>>> measured_result("COCCNS(=O)(=O)Nc1nccc(Cc2cc(C(=O)NOC)c(Nc3ccc(I)cc3F)n(C)c2=O)c1F [Compound J-9]")
7.19
>>> measured_result("CCNS(=O)(=O)Nc1nccc(Cc2cc(C(=O)NC3CC3)c(Nc3ccc(I)cc3F)c(F)c2F)c1F [Compound A-4]")
7.77
>>> measured_result("Cn1c(Nc2ccc(I)cc2F)c(C(N)=O)cc(Cc2ccnc(NS(=O)(=O)NC3(C)CCC3)c2F)c1=O [Compound J-15]")
7.25
>>> measured_result("NC(=O)c1c(Nc2ccc(I)cc2F)cncc1Oc1cccc(NS(=O)(=O)C2CC2)c1 [Ref-4, reference compound]")
7.96
>>> measured_result("CCS(=O)(=O)Nc1nccc(Cn2cc(C(=O)NC3CC3)c(Nc3ccc(I)cc3F)c(C)c2=O)c1F [Compound P-4]")
7.47
>>> measured_result("CNS(=O)(=O)Nc1nccc(Cc2cc(C(=O)NC3CC3)c(Nc3ccc(C4CC4)cc3F)c(F)c2F)c1F [Compound G-1]")
6.65
>>> measured_result("CNS(=O)(=O)Nc1nccc(Cc2cc(C(=O)NC3CC3)c(Nc3ccc(I)cc3F)n(C)c2=O)c1F [Compound J-5]")
6.93
>>> measured_result("NC(=O)c1cc(Cc2ccnc(NS(N)(=O)=O)c2)c(F)c(F)c1Nc1ccc(I)cc1F [Compound C-1]")
7.14
>>> measured_result("NC(=O)c1cc(Cc2cccc(NS(=O)(=O)CC3CC3)c2F)c(F)c(F)c1Nc1ccc(I)cc1F [Compound E-14]")
6.46
>>> measured_result("CCS(=O)(=O)Nc1cccc(Cc2cc(C(N)=O)c(Nc3ccc(I)cc3F)n(C)c2=O)c1F [Compound K-10]")
6.89
>>> measured_result("NC(=O)c1cc(Cc2ccnc(NS(=O)(=O)NCC3COC3)c2F)c(F)c(F)c1Nc1ccc(I)cc1F [Compound A-21]")
8.30
>>> measured_result("CCNS(=O)(=O)Nc1nccc(Cc2cc(C(=O)NOCCO)c(Nc3ccc(I)cc3F)c(F)c2F)c1F [Compound A-44]")
8.70
>>> measured_result("NC(=O)c1cc(Cc2ccnc(NS(=O)(=O)NC3CC3)c2F)c(F)c(F)c1Nc1ccc(I)cc1Cl [Compound B-11]")
7.72
>>> measured_result("CC(C)S(=O)(=O)Nc1cccc(Cc2cc(C(N)=O)c(Nc3ccc(I)cc3F)c(F)c2F)c1F [Compound E-24]")
6.72

###

target: BRAF (Homo sapiens, UniProt P15056); construct: purchased Eurofins Genomics KK; (BRAF); Thermo Fisher Scientific Inc. (MEK1); assay: BRAF-inhibiting activity, time-resolved fluorescence-fluorescence resonance energy transfer assay; format: biochemical; details: read-out: BRAF IC50; Table 3
Sequence (P15056 417-766 limits assumed): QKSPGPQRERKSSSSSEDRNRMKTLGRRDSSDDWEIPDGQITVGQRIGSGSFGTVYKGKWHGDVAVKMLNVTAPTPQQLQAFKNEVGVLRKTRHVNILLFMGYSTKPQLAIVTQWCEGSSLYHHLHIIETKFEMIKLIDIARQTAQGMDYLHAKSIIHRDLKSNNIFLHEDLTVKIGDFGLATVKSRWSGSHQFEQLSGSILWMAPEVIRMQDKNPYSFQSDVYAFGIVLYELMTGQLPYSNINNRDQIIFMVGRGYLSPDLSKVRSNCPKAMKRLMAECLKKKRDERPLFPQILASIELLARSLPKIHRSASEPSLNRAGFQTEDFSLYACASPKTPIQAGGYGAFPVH
assay_endpoint: IC50 (nM)

>>> measured_result("NC(=O)c1cc(Cc2ccnc(NS(=O)(=O)NCC3CC3)c2F)c(F)c(F)c1Nc1ccc(I)cc1F [Compound A-36]")
5
>>> measured_result("CNS(=O)(=O)Nc1nccc(Cc2cc(C(=O)NC3CC3C)c(Nc3ccc(I)cc3F)c(F)c2F)c1F (mixture of isomers) [Compound B-3]")
4
>>> measured_result("CNS(=O)(=O)Nc1cccc(Cc2cc(C(N)=O)c(Nc3ccc(I)cc3F)c(F)c2F)c1 [Compound F-1]")
5
>>> measured_result("CC(C)(C)ONC(=O)c1cc(Cc2ccnc(NS(=O)(=O)NC3CC3)c2F)c(F)c(F)c1Nc1ccc(I)cc1Cl [Compound B-13]")
10
